# procedure details: in vitro
# condition details: human, h1 hela cells
quantity kind: CC50

- compound: "CC(C)OC(=O)[C@H](C)N[P@](=O)(OC[C@@]1(F)O[C@@H](n2ccc3c(N)ncnc32)[C@H](O)[C@@H]1O)Oc1ccccc1"
  meas value: "10 to 99 µM"
- compound: "CCOc1nc(N)nc2c1ncn2[C@@H]1O[C@](F)(CO)[C@@H](O)[C@@]1(C)Cl"
  meas value: "> 99 µM"
- compound: "Nc1ncnc2c1ccn2[C@@H]1O[C@](F)(CO)[C@@H](O)[C@]1(F)Cl"
  meas value: "> 99 µM"

Please state CC50 for every compound in the list that follows.
1. Nc1ncnn2c([C@@H]3O[C@](F)(CO)[C@@H](O)[C@H]3O)cnc12
2. C#Cc1nc(N)c2ncn([C@@H]3O[C@](F)(CO)[C@@H](O)[C@H]3O)c2n1

1: 1 to 10 µM; 2: > 99 µM

---

# System: HCMV
# procedure details: HCMV/HFF antiviral assay
# Type: cell-based
# condition details: Human betaherpesvirus 5, HFF
quantity kind: EC50

Examples with answers:
- smiles data: "Nc1ncnc2c1c(Cl)cn2[C@@H]1O[C@](F)(CO)[C@@H](O)[C@H]1O"
  meas value: "100 to 1000 nM"
- smiles data: "NC(=O)c1cn([C@@H]2O[C@](F)(CO)[C@@H](O)[C@H]2O)c2ncncc12"
  meas value: "> 10000 nM"

Query molecule follows.
For Nc1ncnc2c1c(F)cn2[C@@H]1O[C@](F)(CO)[C@@H](O)[C@H]1O , what is its reported EC50?
1000 to 10000 nM

---

Please go through the items and note down their CC50.
# procedure details: in vitro
# condition details: human, hep2 cells

Examples with answers:
- smiles data: "NC(=O)c1cc([C@@H]2O[C@](F)(COC(=O)c3ccccc3)[C@@H](O)[C@H]2O)n2ncnc(N)c12"
  quantity kind: "CC50"
  meas value: "< 1 µM"
- smiles data: "Nc1ncnc2c1ccn2[C@@H]1O[C@@](F)(CO)C[C@H]1O"
  quantity kind: "CC50"
  meas value: "> 99 µM"
- smiles data: "OC[C@@]1(F)O[C@@H](n2cc(Cl)c3cncnc32)[C@H](O)[C@@H]1O"
  quantity kind: "CC50"
  meas value: "10 to 99 µM"
- smiles data: "Nc1ncnc2c1c(Cl)cn2[C@@H]1O[C@](F)(CO)[C@@H](O)[C@H]1O"
  quantity kind: "CC50"
  meas value: "10 to 99 µM"
- smiles data: "N#C[C@@]1(c2cnc3c(N)ncnn23)O[C@](F)(CO)[C@@H](O)[C@H]1O"
  quantity kind: "CC50"
  meas value: "> 99 µM"
- smiles data: "C#C[C@]1(O)[C@H](n2ccc3c(NCCC)ncnc32)O[C@](F)(CO)[C@H]1O"
  quantity kind: "CC50"
  meas value: "10 to 99 µM"
- smiles data: "Nc1nc2c(ncn2[C@@H]2O[C@](F)(CO)[C@@H](O)C2(F)F)c(=O)[nH]1"
  quantity kind: "CC50"
  meas value: "> 99 µM"

Query compound follows.
For N#Cc1cn([C@@H]2O[C@](F)(CO)[C@@H](O)[C@H]2O)c2nc[nH]c(=O)c12 , what is its reported CC50?
> 99 µM

---

Please go through the items and note down their CC50.
# procedure details: in vitro
# condition details: human, h1 hela cells

Please state CC50 for every compound in the list that follows.
1. O=c1[nH]cnc2c1ccn2[C@@H]1O[C@](F)(CO)[C@@H](O)[C@H]1O [Example 16]
2. COc1ncnc2c1ccn2[C@@H]1O[C@](F)(CO)[C@@H](O)[C@H]1O [Example 41]
3. CCOc1nc(N)nc2c1ncn2[C@@H]1O[C@](F)(CO)[C@@H](O)C1(F)F [Example 60]
4. N#C[C@]1(CO)O[C@@H](n2ccc3c(N)ncnc32)[C@H](O)[C@@H]1O [Example 32]

> 99 µM
10 to 99 µM
> 99 µM
> 99 µM

---

# procedure details: in vitro
# condition details: human, hepg2 cells
Please go through the items and note down their CC50 at 72 h.

Please state CC50 at 72 h for every compound in the list that follows.
1. COc1ncnc2c1c(C(N)=O)cn2[C@@H]1O[C@](F)(CO)[C@@H](O)[C@H]1O [Example 38]
2. Nc1ncnc2c1c(CO)cn2[C@@H]1O[C@](F)(CO)[C@@H](O)[C@H]1O [Example 17]
3. CNc1nc(N)nc2c1ccn2[C@@H]1O[C@](F)(COC(=O)c2ccccc2)[C@@H](O)[C@H]1O [Example 56]
4. CNc1nc(N)nc2c1ncn2[C@@H]1O[C@](F)(COP(=O)(N[C@@H](C)C(=O)OC(C)C)Oc2ccccc2)[C@@H](O)[C@]1(F)Cl (single isomer, unassigned) [Example 59]

1: 1 to 10 µM; 2: 10 to 99 µM; 3: > 99 µM; 4: > 99 µM

Please state CC50 at 72 h for every compound in the list that follows.
1. C#C[C@]1(O)[C@H](n2ccc(N)nc2=O)O[C@](F)(CO)[C@H]1O [Example 44]
2. CC(C)C(=O)OC[C@@]1(F)O[C@@H](n2ccc3c(N)ncnc32)[C@H](O)[C@@H]1O [Example 46]
3. CCOc1nc(N)nc2c1ncn2[C@@H]1O[C@](F)(CO[P@@](=O)(N[C@@H](C)C(=O)OC(C)C)Oc2ccccc2)[C@@H](O)[C@]1(F)Cl [Example 67]
4. [N-]=[N+]=N[C@]1(CO)O[C@@H](n2ccc3c(N)ncnc32)[C@@](F)(Cl)[C@@H]1O [Example 7]
5. Nc1ncnc2c1ccn2[C@@H]1O[C@@](CO)(CF)[C@@H](O)[C@H]1O [Example 20]

1: > 99 µM; 2: 1 to 10 µM; 3: 10 to 99 µM; 4: > 99 µM; 5: > 99 µM

---

Please go through the items and note down their CC50 at 24 h.
# procedure details: in vitro
# condition details: human, hela-ace2 cells

- compound: "CCOc1nc(N)nc2c1ncn2[C@@H]1O[C@](F)(CO)[C@@H](O)C1(F)F"
  CC50 at 24 h: "> 99 µM"
- compound: "C[C@H](NP(=O)(OC[C@@]1(F)O[C@@](C#N)(c2cnc3c(N)ncnn23)[C@H](O)[C@@H]1O)Oc1cccc2ccccc12)C(=O)OCC(C)(C)C (stereo partly shown)"
  CC50 at 24 h: "10 to 99 µM"
- compound: "CC(C)C(=O)OC[C@@]1(F)O[C@@H](n2ccc3c(N)ncnc32)[C@H](OC(=O)C(C)C)[C@@H]1OC(=O)C(C)C"
  CC50 at 24 h: "10 to 99 µM"
- compound: "[N-]=[N+]=N[C@]1(CO)O[C@@H](n2ccc3c(N)ncnc32)[C@@](F)(Cl)[C@@H]1O"
  CC50 at 24 h: "> 99 µM"
- compound: "[N-]=[N+]=N[C@]1(CO)O[C@@H](n2ccc3c(N)ncnc32)[C@H](O)[C@@H]1O"
  CC50 at 24 h: "> 99 µM"
- compound: "CCOc1nc(N)nc2c1ncn2[C@@H]1O[C@](F)(CO)[C@@H](O)[C@]1(F)Br"
  CC50 at 24 h: "> 99 µM"

Query compound follows.
For Cc1nc(Cl)c2ccn([C@@H]3O[C@](F)(CO)[C@@H](O)[C@H]3O)c2n1 , what is its reported CC50 at 24 h?
> 99 µM

---

# procedure details: in vitro
# condition details: human, hep2 cells
Please go through the items and note down their CC50.

Examples with answers:
- compound: "CNc1nc(N)nc2c1ncn2[C@@H]1O[C@](F)(COP(=O)(N[C@@H](C)C(=O)OC(C)C)Oc2ccccc2)[C@@H](O)[C@]1(F)Cl (single isomer, unassigned) [Example 58]"
  meas value: "> 99 µM"
- compound: "Nc1nc(Cl)nc2c1ncn2[C@@H]1O[C@](F)(CO)[C@@H](O)[C@H]1O [Example 43]"
  meas value: "> 99 µM"
- compound: "OC[C@@]1(F)O[C@@H](n2ccc3cncnc32)[C@H](O)[C@@H]1O [Example 23]"
  meas value: "10 to 99 µM"

Please state CC50 for every compound in the list that follows.
1. Nc1nc(F)nc2c1ncn2[C@@H]1O[C@](F)(CO)[C@@H](O)[C@H]1O [Example 31]
2. NC(=O)c1cn([C@@H]2O[C@](F)(CO)[C@@H](O)[C@H]2O)c2ncnc(N)c12 [Example 14]
3. CCOc1nc(N)nc2c1ncn2[C@@H]1O[C@](F)(COP(=O)(N[C@@H](C)C(=O)OC(C)C)Oc2ccccc2)[C@@H](O)C1(F)F (stereo partly shown) [Example 69]

1: < 1 µM; 2: 1 to 10 µM; 3: 10 to 99 µM

For C[C@]1(O)[C@H](c2ccc3c(N)ncnn23)O[C@@](CO)(N=[N+]=[N-])[C@H]1O [Example 9] , what is its reported CC50?
> 99 µM

Where these numbers come from: patent US20260325561A1
